Data origin: the supplement of paper PMC7021759

Please provide measured area under dose-response curve for the entries that follow.
- Test system: SK-N-MM (SKNMM-MYCN, doxycycline-inducible MYCN)
- EXPERIMENT_SUMMARY: area under dose-response curve (CellTiter-Glo viability normalised to plate controls) (AUC (arbitrary units)); higher = more loss of viability; extreme values may be limits of the assay
- ASSAY_CONTEXT: MYCN induction (doxycycline): no doxycycline (MYCN not induced); time after drugging: 8 days
In your answer, state the number alone without any accompanying words.

-- ask State its area under dose-response curve: CCN(CC)CCNC(=O)c1c(C)[nH]c(/C=C2\C(=O)Nc3ccc(F)cc32)c1C
-- reply 140

-- ask State its area under dose-response curve: Cc1nc(Nc2ncc(C(=O)Nc3c(C)cccc3Cl)s2)cc(N2CCN(CCO)CC2)n1
-- reply 51.4

-- ask State its area under dose-response curve: Cc1c(CN2CCC(Nc3ncnc4sc(CC(F)(F)F)cc34)CC2)ccc2c1cc(C#N)n2Cc1cn[nH]c1
-- reply 169

-- ask State its area under dose-response curve: Nc1nc(=O)n([C@H]2C[C@H](O)[C@@H](CO)O2)cc1F
-- reply 58.5
